System: KM12 colon
Protocol text: NCI tumour cell line growth inhibition, 48 h
Measurement name: GI50

Name the reported GI50 value associated with the molecule COc1cc(C2=C(C#Cc3ccccc3)COC2=O)cc(OC)c1OC
1870 nM

Likewise for COc1ccc(Cn2cc3c(c2-c2ccc(OC)cc2)CCc2cnoc2-3)cc1 ?
376 nM

Likewise for Cc1cc(Cl)ccc1NC(=O)c1cc2ccccc2cc1O ?
1910 nM

Likewise for CC(C)CCN=C(N)c1ccc(N2CCN(c3ccc(C(N)=NCCC(C)C)cc3)CC2)cc1 ?
3820 nM

* * *

Tested on: T-47D breast
Protocol text: NCI tumour cell line growth inhibition, 48 h
Label scheme for TGI: lower than 60 µM is condition not met, 60 µM and above is condition met.

Answered examples (10):
Molecule | Class name
Cc1cc(N(CCNc2ccnc3cc(Cl)ccc23)Cc2ccco2)nc(Cl)n1 | condition not met
COc1cc2c(cc1C)NC(=O)/C2=C\c1cccc(Oc2ccccc2)c1 | condition met
O=C(Nc1ccccc1)NS(=O)(=O)c1ccc(-n2nc3c(c2-c2ccc(Cl)cc2)Cc2ccccc2-3)cc1 | condition met
COC(=O)C1=C(C)NC(C)=C(C(=O)OC)C1/C=C(Cl)/C=C/c1ccccc1 | condition met
Cn1ccnc1C(=O)/C=C/c1ccccc1 | condition not met
CC(C)CCN=C(N)c1ccc(N2CCN(c3ccc(C(N)=NCCC(C)C)cc3)CC2)cc1 | condition not met
O=C/C=C/c1ccco1 | condition met
Nc1nc(N)c2ncn(Cc3ccccc3CCl)c2n1 | condition met
CCSc1cc(=O)n(C)c(=O)n1C | condition met
N#Cc1c(N)nc(N2CCOCC2)c(C#N)c1-c1cccnc1 | condition met

Test whether the molecule COc1ccc(OC)c(CC2CCc3nc(N)nc(N)c3C2)c1 (configuration not stated) records TGI of 60 µM or higher.
condition met

Likewise for O=C(Cc1nccc2c1[nH]c1ccccc12)OC1C#CCSCC#C/C=C\1 (configuration not stated) ?
condition met

* * *

The following molecules are listed with their measured TGI values.
System: TK-10 renal
Protocol text: NCI tumour cell line growth inhibition, 48 h

Solved entries:
Molecule | Target desc | TGI
CC(=O)OC(CCC1(C)OC1COc1ccc(CCNC(=O)c2ccccc2)cc1)C(C)(C)OC(C)=O (stereo not drawn) | TK-10 renal | > 100 µM
COc1ccc(-c2nc3ccccn3c2/C=C/C(=O)c2cc(OC)c(OC)c(OC)c2)cc1 | TK-10 renal | > 100 µM

Name the reported TGI value associated with the molecule N#C/C(=C\NC(=S)c1ccncc1)c1nc2ccccc2s1
> 100 µM

* * *

Tested on: HCC-2998 colon
Protocol text: NCI tumour cell line growth inhibition, 48 h; in the data active means GI50 below about 0.43 µM; inactive means the rest
Valid outcomes are listed here; reply with one: y = active, n = inactive

Answered examples (5):
Compound | Class name
COc1cc(/C=C/C(=O)c2c(C)nc3ccccc3c2C)ccc1OCCCOc1cc2c(cc1OC)C(=O)N1CCC[C@H]1C=N2 | y
CN(C)c1ccc(Nc2cc(-c3cccc(OC(F)(F)F)c3)nc3ccc(N4CCCC4)cc23)cc1 | n
Cc1cc(N(CCNc2ccnc3cc(Cl)ccc23)Cc2ccco2)nc(Cl)n1 | n
Nc1nc(-c2ccccc2)nc(N)c1N=O | n
Cc1c(COc2cc(OCc3cccc(C#N)c3)c(CN3C[C@H](O)C[C@@H]3C(=O)O)cc2Cl)cccc1-c1ccc2c(c1)OCCO2 | n

What is the recorded call for this compound in the test? CC[C@@H](C(=O)[C@@H](C)[C@@H](O)[C@H](C)[C@@H]1O[C@@H]([C@@H](CC)C(=O)N(CC)CC)CC[C@@H]1C)C1O[C@]2(C=CC(=O)[C@]3(CC[C@@](C)([C@H]4CC[C@](O)(CC)[C@H](C)O4)O3)O2)[C@H](C)C[C@@H]1C (some centres not stated)
n

Likewise for COc1ccc2c(c1)C(=O)c1c-2c(Nc2ccc(Cl)cc2)nc2ccccc12 ?
n
